# ASSAY DETAILS: Total Cmax in Beagle dog at 15 mg/kg, po qd measured after 91 days
# Type: ADME, organism-based, Canis lupus familiaris
# APPLIED CONDITIONS: in vivo, time 91 day
READOUT TYPE: Cmax (ng/mL)
Unit ng/mL implied. Number only.

Q: // lookup Cmax for COCCCOc1cc2c(nc1OC)-c1cc(=O)c(C(=O)O)cn1[C@H](C(C)C)C2
A: 11500

* * *

# ASSAY DETAILS: Drug concentration in Beagle dog kidney at 10 mg/kg, po measured for 12 hrs by LC-MS/MS analysis
# Format: ADME, organism-based, Canis lupus familiaris
# APPLIED CONDITIONS: read-out: Ct
READOUT TYPE: concentration at 12 h (ng/g)
A number alone suffices; assume ng/g.

Q: What value of concentration at 12 h has been recorded for this entry: CC(C)(C)[C@@H]1Cc2c(nc3c(C(F)(F)F)cc(C4CC4)cn23)-c2[nH]c(=O)c(C(=O)O)cc21
A: 347

Q: Tell me the measured concentration at 12 h of COc1cc(OC(F)F)c2nc3c(n2c1)C[C@@H](C(C)(C)C)c1cc(C(=O)O)c(=O)[nH]c1-3 , please.
A: 1180

Q: Query: concentration at 12 h; subject: COCCCOc1cc2c(nc1OC)-c1cc(=O)c(C(=O)O)cn1[C@H](C(C)C)C2
A: 129

* * *

# ASSAY DETAILS: Total Cmax in Beagle dog at 60 mg/kg, po qd measured after 91 days
# Format: ADME, organism-based, Canis lupus familiaris
# APPLIED CONDITIONS: in vivo, time 91 day
READOUT TYPE: Cmax (ng/mL)
Numbers only here, please. The scale is ng/mL.

Q: Given the molecule COCCCOc1cc2c(nc1OC)-c1cc(=O)c(C(=O)O)cn1[C@H](C(C)C)C2 , what is its reported Cmax?
A: 18700

* * *

# ASSAY DETAILS: Ratio of drug concentration in liver to plasma of Sprague-Dawley rat at 10 mg/kg, po measured for 24 hrs by LC-MS/MS analysis
# Format: ADME, organism-based
# APPLIED CONDITIONS: liver and plasma
READOUT TYPE: Kp at 24 h

Q: Record request: Kp at 24 h value, item COCCCOc1cc2c(nc1OC)-c1cc(=O)c(C(=O)O)cn1[C@H](C(C)C)C2
A: 3.3

* * *

# ASSAY DETAILS: Metabolic stability in CD-1 mouse liver microsomes assessed as clearance at 0.3 uM preincubated for 5 mins followed by NADPH addition measured upto 60 mins by LC-MS/MS analysis
# Assay type: ADME, Microsome
# APPLIED CONDITIONS: time < 65 min, read-out: CLH
READOUT TYPE: microsomal CLint at 0.3 µM
Please make sure the unit comes right after the number.

Q: Param item = CC(C)(C)[C@@H]1Cc2c(nc3c(OC(F)F)cc(F)cn23)-c2[nH]c(=O)c(C(=O)O)cc21 ; retrieve measured microsomal CLint at 0.3 µM.
A: 3 µL/min/mg

Q: # input molecule: CC(C)(C)[C@@H]1Cc2c(nc3c(OC(F)F)cccn23)-c2[nH]c(=O)c(C(=O)O)c(O)c21 ; wanted: its microsomal CLint at 0.3 µM
A: 64 µL/min/mg

Q: // query microsomal CLint at 0.3 µM value for entry COc1ccn2c3c(nc2c1OC(F)F)-c1[nH]c(=O)c(C(=O)O)cc1[C@H](C(C)(C)C)C3
A: 3 µL/min/mg

Q: Give its microsomal CLint at 0.3 µM value. Item: Cn1c2c(cc(C(=O)O)c1=O)[C@H](C(C)(C)C)Cc1c-2nc2c(C(F)(F)F)cc(Cl)cn12
A: 1 µL/min/mg

Q: Which microsomal CLint at 0.3 µM value is on record for COc1cc(OC(F)F)c2nc3c(n2c1)C[C@@H](C(C)(C)C)c1cc(C(=O)O)c(=O)[nH]c1-3 ?
A: 7 µL/min/mg

Q: What microsomal CLint at 0.3 µM value was documented for this molecule, CC(C)(C)[C@@H]1Cc2c(nc3c(C(F)(F)F)cc(Cl)cn23)-c2[nH]c(=O)c(C(=O)O)cc21 ?
A: 3 µL/min/mg

Q: Which microsomal CLint at 0.3 µM value is on record for CC(C)(C)[C@@H]1Cc2c(nc3c(C(F)(F)F)cc(C4CC4)cn23)-c2[nH]c(=O)c(C(=O)O)cc21 ?
A: 1 µL/min/mg

Q: Which microsomal CLint at 0.3 µM value belongs to COc1cccn2c3c(nc12)-c1[nH]c(=O)c(C(=O)O)cc1[C@H](C(C)(C)C)C3 ?
A: 16 µL/min/mg

Q: Give its microsomal CLint at 0.3 µM value. Item: COCCCOc1cc2c(nc1OC)-c1cc(=O)c(C(=O)O)cn1[C@H](C(C)C)C2
A: 3 µL/min/mg

Q: // returns reported microsomal CLint at 0.3 µM for input CC(C)(C)[C@@H]1Cc2c(nc3c(C(F)(F)F)cccn23)-c2[nH]c(=O)c(C(=O)O)cc21
A: 15 µL/min/mg

Q: Given COCCCOc1cc2c(nc1OC)-c1[nH]c(=O)c(C(=O)O)c(O)c1[C@H](C(C)(C)C)C2 , state its recorded microsomal CLint at 0.3 µM.
A: 12 µL/min/mg

Q: Entry CC(C)(C)[C@@H]1Cc2c(nc3c(C(F)F)cccn23)-c2[nH]c(=O)c(C(=O)O)cc21 has what microsomal CLint at 0.3 µM?
A: 11 µL/min/mg

Q: Using the record for CC(C)(C)[C@@H]1Cc2c(nc3c(OC(F)F)cccn23)-c2[nH]c(=O)c(C(=O)O)cc21 , report its microsomal CLint at 0.3 µM.
A: 45 µL/min/mg

Q: State the recorded microsomal CLint at 0.3 µM for this entry: COc1ccn2c3c(nc2c1OC)-c1[nH]c(=O)c(C(=O)O)cc1[C@H](C(C)(C)C)C3
A: 1 µL/min/mg
